Test target: ErbB3 (Homo sapiens, UniProt P21860)
Run description: paratope mapping: binding of Ab #6 scFv mutants to ErbB3
Experimental conditions: scFv format; compared with binding to Protein A
Quantity: Effect on ErbB3 Binding of Ab #6 Mutations

Molecule	Val
M1: Ab #6 scFv mutant, H1 loop, Thr28Ala (antibody, chains of the INN, looked up, variant H:T28A, V domains shown, scFv) VH: EVQLLESGGGLVQPGGSLRLSCAASGFAFSHYVMAWVRQAPGKGLEWVSSISSSGGWTLYADSVKGRFTISRDNSKNTLYLQMNSLRAEDTAVYYCTRGLKMATIFDYWGQGTLVTVSS VL: QSALTQPASVSGSPGQSITISCTGTSSDVGSYNVVSWYQQHPGKAPKLIIYEVSQRPSGVSNRFSGSKSGNTASLTISGLQTEDEADYYCCSYAGSSIFVIFGGGTKVTVL	no effect on binding
M5: Ab #6 scFv mutant, CDR H1, Tyr32Phe (antibody, chains of the INN, looked up, variant H:Y32F, V domains shown, scFv) VH: EVQLLESGGGLVQPGGSLRLSCAASGFTFSHFVMAWVRQAPGKGLEWVSSISSSGGWTLYADSVKGRFTISRDNSKNTLYLQMNSLRAEDTAVYYCTRGLKMATIFDYWGQGTLVTVSS VL: QSALTQPASVSGSPGQSITISCTGTSSDVGSYNVVSWYQQHPGKAPKLIIYEVSQRPSGVSNRFSGSKSGNTASLTISGLQTEDEADYYCCSYAGSSIFVIFGGGTKVTVL	no effect on binding
M3: Ab #6 scFv mutant, CDR H1, His31Ala (antibody, chains of the INN, looked up, variant H:H31A, V domains shown, scFv) VH: EVQLLESGGGLVQPGGSLRLSCAASGFTFSAYVMAWVRQAPGKGLEWVSSISSSGGWTLYADSVKGRFTISRDNSKNTLYLQMNSLRAEDTAVYYCTRGLKMATIFDYWGQGTLVTVSS VL: QSALTQPASVSGSPGQSITISCTGTSSDVGSYNVVSWYQQHPGKAPKLIIYEVSQRPSGVSNRFSGSKSGNTASLTISGLQTEDEADYYCCSYAGSSIFVIFGGGTKVTVL	no effect on binding

Entry source: patent US8691225B2
